TARGET_OR_SYSTEM: Amine oxidase [flavin-containing] A (Rattus norvegicus)
Sequence (P21396 whole entry): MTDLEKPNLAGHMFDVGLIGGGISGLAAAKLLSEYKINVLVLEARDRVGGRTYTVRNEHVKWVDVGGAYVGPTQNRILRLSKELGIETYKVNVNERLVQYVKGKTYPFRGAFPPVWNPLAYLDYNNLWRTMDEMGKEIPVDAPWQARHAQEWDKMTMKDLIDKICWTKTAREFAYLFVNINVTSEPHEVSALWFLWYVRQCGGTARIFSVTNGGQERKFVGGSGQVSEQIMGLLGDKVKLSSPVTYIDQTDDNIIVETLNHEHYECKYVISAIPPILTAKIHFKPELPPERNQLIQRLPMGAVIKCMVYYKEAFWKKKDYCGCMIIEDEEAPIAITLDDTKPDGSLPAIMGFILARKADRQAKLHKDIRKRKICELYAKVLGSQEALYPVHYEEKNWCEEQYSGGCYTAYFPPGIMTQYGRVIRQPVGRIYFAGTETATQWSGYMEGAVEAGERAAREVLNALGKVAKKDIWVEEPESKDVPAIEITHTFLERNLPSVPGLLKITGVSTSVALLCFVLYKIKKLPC
ASSAY_TEXT: Inhibition of the enzyme Monoamine oxidase A which was not completely reverserved after 24 hr of dialysis
Criterion: Reversible meeting or surpassing 8%. Met: true (1). Not met: false (0).

# STRUCTURE_NOTATION, ASSIGNED_CLASS
measured = [
    ("CN(C)c1ccc2c(c1)C(=O)c1ccc(C3=NCCN3)cc1S2(=O)=O", "true (1)"),
    ("COc1ccc2c(c1)C(=O)c1ccc(C3=NCCN3)cc1S2(=O)=O", "false (0)"),
    ("COc1ccc2c(c1)C(=O)c1ccc(-c3nnc(C)o3)cc1S2(=O)=O", "true (1)"),
    ("CCOc1ccc2c(c1)C(=O)c1ccc(C3=NCCN3)cc1S2(=O)=O", "false (0)"),
    ("CCCc1ccc2c(c1)C(=O)c1ccc(C3=NCCN3)cc1S2(=O)=O", "false (0)"),
]

Threshold query (Reversible >= 8%) on C=CCNc1ccc2c(c1)C(=O)c1ccc(C3=NCCN3)cc1S2(=O)=O
false (0)

Now the compound O=C1c2cc(F)ccc2S(=O)(=O)c2cc(C3=NCCN3)ccc21
true (1)

Now the compound CCCOc1ccc2c(c1)C(=O)c1ccc(C3=NCCN3)cc1S2(=O)=O
false (0)

Now the compound CCCOc1ccc2sc3cc(-c4nnc(C)o4)ccc3c(=O)c2c1
true (1)

Now the compound c1ccc2c(c1)Oc1ccc(C3=NCCN3)cc1S2
true (1)

Now the compound CC(C)(C)c1ccc2c(c1)C(=O)c1ccc(C3=NCCN3)cc1S2(=O)=O
true (1)

Now the compound Cn1nnc(-c2ccc3c(c2)S(=O)(=O)c2ccccc2C3=O)n1
true (1)

Now the compound CC(C)c1ccc2c(c1)C(=O)c1ccc(C3=NCCN3)cc1S2(=O)=O
true (1)

Now the compound Cc1ccc2c(c1)C(=O)c1ccc(C3=NCCN3)cc1S2(=O)=O
true (1)

Now the compound COc1ccc2c(c1)C(=O)c1ccc(-c3nnn(C)n3)cc1S2(=O)=O
true (1)

Now the compound CC(C)c1ccc2c(c1)C(=O)c1ccc(-c3nnn(C)n3)cc1S2(=O)=O
false (0)

Now the compound CCCNc1ccc2c(c1)C(=O)c1ccc(C3=NCCN3)cc1S2(=O)=O
false (0)

Now the compound Cc1ccc2c(c1)C(=O)c1ccc(-c3nnc(C)o3)cc1S2(=O)=O
true (1)

Now the compound O=S1(=O)c2ccccc2Oc2ccc(C3=NCCN3)cc21
true (1)

Now the compound CCCOc1ccc2c(c1)C(=O)c1ccc(-c3nnn(C)n3)cc1S2(=O)=O
false (0)

This collection of values is drawn from ChEMBL document CHEMBL1129565.
